measurement.notes: Dissociation constant, pKa of the compound
Format: physicochemical
metric.name: pKa
Reply briefly: the number, and no unit.

Any idea what its pKa is? The compound is `Cc1ccc(N2CCN(C(=O)[C@H](C)Cc3ccc(Cl)cc3)CC2)c([C@@H](NC(=O)CCN(C)C)C(C)C)c1`
7.8

---

measurement.notes: Tmax in CD1 mouse brain at 10 mg/kg, po
Assay type: ADME, organism-based
Parameters: dose 10 mg/kg, route oral
metric.name: Tmax (min)
Write down the numeric answer in min and omit the unit.

Any idea what its Tmax is? The compound is `Cc1ccc(N2CCN(C(=O)[C@H](C)Cc3ccc(Cl)cc3)CC2)c([C@@H](NC(=O)CCN(C)C)C(C)C)c1`
18

---

measurement.notes: Tmax in CD1 mouse at 10 mg/kg, po
Assay type: ADME, organism-based
Design: dose 10 mg/kg, route oral
test.conditions: in vivo, read-out: Tm
metric.name: Tmax
Express your answer as a number followed by its unit.

Any idea what its Tmax is? The compound is `Cc1ccc(N2CCN(C(=O)[C@H](C)Cc3ccc(Cl)cc3)CC2)c([C@@H](NC(=O)CCN(C)C)C(C)C)c1`
30 min

---

measurement.notes: Volume of distribution in rat at 5 mg/kg, iv or 10 mg/kg, po
Type: ADME, organism-based
test.conditions: in vivo
metric.name: Vd (L/kg)
Write down the numeric answer in L/kg and omit the unit.

Any idea what its Vd is? The compound is `Cc1ccc(N2CCN(C(=O)[C@H](C)Cc3ccc(Cl)cc3)CC2)c([C@@H](NC(=O)CCN(C)C)C(C)C)c1`
13

---

measurement.notes: Aqueous solubility at pH 3.0
Type: physicochemical
test.conditions: aqueous medium
metric.name: solubility

Any idea what its solubility is? The compound is `Cc1ccc(N2CCN(C(=O)[C@H](C)Cc3ccc(Cl)cc3)CC2)c([C@@H](NC(=O)CCN(C)C)C(C)C)c1`
> 71 mg/mL

---

measurement.notes: AUC in Beagle dog at 5 mg/kg, iv
Type: ADME, organism-based, Canis lupus familiaris
Set-up: dose 5 mg/kg, route intravenous
test.conditions: plasma
metric.name: AUC (ng·h/mL)
Write down the numeric answer in ng·h/mL and omit the unit.

Any idea what its AUC is? The compound is `Cc1ccc(N2CCN(C(=O)[C@H](C)Cc3ccc(Cl)cc3)CC2)c([C@@H](NC(=O)CCN(C)C)C(C)C)c1`
8200

---

measurement.notes: Volume of distribution in rhesus monkey at 5 mg/kg, iv
Type: ADME, organism-based, Macaca mulatta
Design: dose 5 mg/kg, route intravenous
test.conditions: in vivo
metric.name: Vd (L/kg)
Write down the numeric answer in L/kg and omit the unit.

Any idea what its Vd is? The molecule is `Cc1ccc(N2CCN(C(=O)[C@H](C)Cc3ccc(Cl)cc3)CC2)c([C@@H](NC(=O)CCN(C)C)C(C)C)c1`
2

---

measurement.notes: Ratio of drug level in brain to plasma in rat at 2.5 mg/kg, iv or 10 mg/kg, po after 4 hrs
Format: ADME, organism-based
metric.name: Kp at 4 h
Reply briefly: the number, and no unit.

Any idea what its Kp at 4 h is? The compound is `Cc1ccc(N2CCN(C(=O)[C@H](C)Cc3ccc(Cl)cc3C)CC2)c([C@@H](NC(=O)CCN(C)C)C(C)C)c1`
0.3

---

measurement.notes: Ratio of drug level in brain to plasma in rat at 5 mg/kg, iv or 10 mg/kg, po after 1 hr
Type: ADME, organism-based
metric.name: Kp at 1 h

Any idea what its Kp at 1 h is? The compound is `Cc1ccc(N2CCN(C(=O)[C@H](C)Cc3ccc(Cl)cc3)CC2)c([C@@H](NC(=O)CCN(C)C)C(C)C)c1`
0.2

---

Measured Cmax values are reported for all entries that follow.
measurement.notes: Cmax in rat at 2.5 mg/kg, iv or 10 mg/kg, po
Assay type: ADME, organism-based
test.conditions: in vivo
Write down the numeric answer in ng/mL and omit the unit.

Below: 3 molecules and their reported Cmax.
{"columns": ["smiles.repr", "unit.name", "reported.value"],
 "data": [
  ["CNCCC(=O)N[C@H](c1cc(C)ccc1N1CCN(C(=O)[C@H](C)Cc2ccc(Cl)cc2)CC1)C(C)C", "ng/mL", 57],
  ["Cc1ccc(N2CCN(C(=O)[C@H](C)Cc3ccc(Cl)cc3F)CC2)c([C@@H](NC(=O)CCN(C)C)C(C)C)c1", "ng/mL", 134],
  ["Cc1ccc(N2CCN(C(=O)[C@H](C)Cc3ccc(Cl)cc3C)CC2)c([C@@H](NC(=O)CCN(C)C)C(C)C)c1", "ng/mL", 208]
]}

Proceed to the following item.
Any idea what its Cmax is? The molecule is `CNCCN[C@H](c1cc(C)ccc1N1CCN(C(=O)[C@H](C)Cc2ccc(Cl)cc2F)CC1)C(C)C`
22

---

measurement.notes: Plasma clearance in rat at 5 mg/kg, iv
metric.name: clearance (mL/min/kg)
Write down the numeric answer in mL/min/kg and omit the unit.

Any idea what its clearance is? The molecule is `CNCCN[C@H](c1cc(C)ccc1N1CCN(C(=O)[C@H](C)Cc2ccc(Cl)cc2F)CC1)C(C)C`
60

---

measurement.notes: Tmax in Sprague-Dawley rat brain at 10 mg/kg, po
Type: ADME, organism-based
Parameters: dose 10 mg/kg, route oral
metric.name: Tmax

Any idea what its Tmax is? The compound is `Cc1ccc(N2CCN(C(=O)[C@H](C)Cc3ccc(Cl)cc3)CC2)c([C@@H](NC(=O)CCN(C)C)C(C)C)c1`
6 h

---

measurement.notes: Oral bioavailability in Beagle dog at 10 mg/kg, po
Format: ADME, organism-based, Canis lupus familiaris
test.conditions: in vivo
metric.name: bioavailability

Any idea what its bioavailability is? The compound is `Cc1ccc(N2CCN(C(=O)[C@H](C)Cc3ccc(Cl)cc3)CC2)c([C@@H](NC(=O)CCN(C)C)C(C)C)c1`
19%

---

measurement.notes: Oral bioavailability in CD1 mouse at 10 mg/kg, po
Type: ADME, organism-based
test.conditions: in vivo
metric.name: bioavailability (%)
Write down the numeric answer in % and omit the unit.

Any idea what its bioavailability is? The compound is `Cc1ccc(N2CCN(C(=O)[C@H](C)Cc3ccc(Cl)cc3)CC2)c([C@@H](NC(=O)CCN(C)C)C(C)C)c1`
32

---

measurement.notes: Drug level in rat brain at 10 mg/kg, po after 4 hrs
Assay type: ADME, organism-based
Set-up: dose 10 mg/kg, route oral
test.conditions: read-out: Drug uptake
Measured concentration at 4 h values are reported for all entries that follow.
Write down the numeric answer in ng/g and omit the unit.

{"columns": ["smiles.repr", "metric.name", "reported.value"],
 "data": [
  ["Cc1ccc(N2CCN(C(=O)[C@H](C)Cc3ccc(Cl)cc3C)CC2)c([C@@H](NC(=O)CCN(C)C)C(C)C)c1", "concentration at 4 h", 42]
]}

Any idea what its concentration at 4 h is? The compound is `Cc1ccc(N2CCN(C(=O)[C@H](C)Cc3ccc(Cl)cc3F)CC2)c([C@@H](NC(=O)CCN(C)C)C(C)C)c1`
31

Follow-up item: `Cc1ccc(N2CCN(C(=O)[C@H](C)Cc3ccc(Cl)cc3)CC2)c([C@@H](NC(=O)CCN(C)C)C(C)C)c1`
33

---

measurement.notes: Cmax in CD1 mouse at 10 mg/kg, po
Type: ADME, organism-based
Design: dose 10 mg/kg, route oral
test.conditions: in vivo
metric.name: Cmax (ng/mL)
Write down the numeric answer in ng/mL and omit the unit.

Any idea what its Cmax is? The molecule is `Cc1ccc(N2CCN(C(=O)[C@H](C)Cc3ccc(Cl)cc3)CC2)c([C@@H](NC(=O)CCN(C)C)C(C)C)c1`
946

---

Measured Vd values are reported for all entries that follow.
measurement.notes: Volume of distribution in rat at 2.5 mg/kg, iv or 10 mg/kg, po
Assay type: ADME, organism-based
test.conditions: in vivo
Write down the numeric answer in L/kg and omit the unit.

Below: 2 compounds and their reported Vd.
{"columns": ["smiles.repr", "reported.value"],
 "data": [
  ["Cc1ccc(N2CCN(C(=O)[C@H](C)Cc3ccc(Cl)cc3C)CC2)c([C@@H](NC(=O)CCN(C)C)C(C)C)c1", 4.3],
  ["Cc1ccc(N2CCN(C(=O)[C@H](C)Cc3ccc(Cl)cc3F)CC2)c([C@@H](NC(=O)CCN(C)C)C(C)C)c1", 4.2]
]}

Any idea what its Vd is? The compound is `CNCCC(=O)N[C@H](c1cc(C)ccc1N1CCN(C(=O)[C@H](C)Cc2ccc(Cl)cc2)CC1)C(C)C`
20

Follow-up item: `CNCCN[C@H](c1cc(C)ccc1N1CCN(C(=O)[C@H](C)Cc2ccc(Cl)cc2F)CC1)C(C)C`
95

---

measurement.notes: Cmax in rat at 5 mg/kg, iv or 10 mg/kg, po
Type: ADME, organism-based
test.conditions: in vivo
metric.name: Cmax (µg/mL)
Write down the numeric answer in µg/mL and omit the unit.

Any idea what its Cmax is? The compound is `Cc1ccc(N2CCN(C(=O)[C@H](C)Cc3ccc(Cl)cc3)CC2)c([C@@H](NC(=O)CCN(C)C)C(C)C)c1`
0.11
